- assay.target: androgen receptor (AR) (Homo sapiens, UniProt P10275, T878A)
- Construct: endogenous in cells; host or cells: LNCAP
- Sequence (P10275 1-920 T878A): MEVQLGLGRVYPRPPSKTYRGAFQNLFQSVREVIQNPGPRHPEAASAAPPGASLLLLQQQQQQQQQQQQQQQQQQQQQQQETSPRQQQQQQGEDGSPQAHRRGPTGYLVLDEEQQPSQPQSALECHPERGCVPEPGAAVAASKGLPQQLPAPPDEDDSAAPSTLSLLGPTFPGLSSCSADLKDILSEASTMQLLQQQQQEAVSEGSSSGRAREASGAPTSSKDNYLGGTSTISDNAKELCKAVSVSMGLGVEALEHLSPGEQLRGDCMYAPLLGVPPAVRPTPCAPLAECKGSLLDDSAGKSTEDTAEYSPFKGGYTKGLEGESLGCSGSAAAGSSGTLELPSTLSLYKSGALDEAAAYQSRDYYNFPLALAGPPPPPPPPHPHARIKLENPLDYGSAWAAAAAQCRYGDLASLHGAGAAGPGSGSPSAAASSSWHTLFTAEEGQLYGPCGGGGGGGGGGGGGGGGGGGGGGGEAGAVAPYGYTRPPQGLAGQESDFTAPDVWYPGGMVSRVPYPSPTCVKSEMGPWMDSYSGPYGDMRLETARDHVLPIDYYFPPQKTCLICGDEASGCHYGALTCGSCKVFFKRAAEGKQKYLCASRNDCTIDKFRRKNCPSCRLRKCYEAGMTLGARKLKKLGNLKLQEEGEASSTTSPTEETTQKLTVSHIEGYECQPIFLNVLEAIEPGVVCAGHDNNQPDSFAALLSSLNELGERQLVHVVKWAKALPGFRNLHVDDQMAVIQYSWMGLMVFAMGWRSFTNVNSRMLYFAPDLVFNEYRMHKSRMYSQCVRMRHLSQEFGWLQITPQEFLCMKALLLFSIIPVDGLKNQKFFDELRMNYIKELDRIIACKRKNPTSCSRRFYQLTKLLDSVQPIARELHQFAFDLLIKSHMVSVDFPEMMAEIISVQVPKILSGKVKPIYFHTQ
- protocol.description: AR degradation in LNCAP cells (Western blot)
- Type: cell-based
- condition.context: 24 hours after administration
- Protocol: LNCAP, VCAP and 22Rv1 cells were plated in 24-well plates at 1.5×10E5 cells/well in the RPMI growth medium containing 10% FBS and 1% Penicillin Streptomycin, and then incubated at 37° C. overnight. The following day, the test compound was administered to the cells by using 1000× compound stock solution prepared in DMSO at various concentrations. After administration of the compound, the cells were then incubated at 37° C. for 24 hours. […] The bands were quantified using Image Studio™ Software (Licor). […]
# key: entry, value: DC50

Entry under review: C[C@@H]1CN(c2ccc(C#N)c3ncccc23)[C@@H](C)CN1C(=O)Nc1ccc(N2CCC(CN3CCN(c4ccc5c(c4)C(=O)N(C4CCC(=O)NC4=O)C5=O)CC3)CC2)c(F)c1 (stereo partly drawn) . Reported DC50?
> 100 nM

Next compound: CCN(CC1CCN(c2ccc(NC(=O)N3C[C@H](C)N(c4ccc(C#N)c(Cl)c4)C[C@H]3C)cn2)CC1)C1CC(Oc2ccc3c(c2)C(=O)N(C2CCC(=O)NC2=O)C3=O)C1 (stereo partly drawn)
10 to 100 nM

Next compound: C[C@@H]1CN(c2ccc(C#N)c(Cl)c2)[C@@H](C)CN1C(=O)Nc1ccc(OCCCCN(C)C2CC(Oc3ccc4c(c3)C(=O)N(C3CCC(=O)NC3=O)C4=O)C2)nc1 (stereo partly drawn)
≤ 10 nM

Next compound: C[C@@H]1CN(c2ccc(C#N)c3ncccc23)[C@@H](C)CN1C(=O)Nc1ccc(N2CCC(CN3CCN(c4cc5c(cc4F)C(=O)N(C4CCC(=O)NC4=O)C5=O)CC3)CC2)c(F)c1 (stereo partly drawn)
> 100 nM

Next compound: C[C@@H]1CN(c2ccc(C#N)c(C(F)(F)F)c2)[C@@H](C)CN1C(=O)Nc1ccc(N2CCC(CN3CCN(c4ccc5c(c4)C(=O)N(C4CCC(=O)NC4=O)C5=O)CC3)CC2)nc1 (stereo partly drawn)
≤ 10 nM

Next compound: C[C@@H]1CN(c2ccc(C#N)c(Cl)c2)[C@@H](C)CN1C(=O)Nc1ccc(N2CCC(CCN3CCN(c4ccc5c(c4)C(=O)N(C4CCC(=O)NC4=O)C5=O)CC3)CC2)nc1 (stereo partly drawn)
≤ 10 nM

---

- assay.target: androgen receptor (AR) (Homo sapiens, UniProt P10275, T878A)
- Construct: endogenous in cells; host or cells: LNCAP
- protocol.description: AR degradation in LNCAP cells (Western blot)
- Type: cell-based
- condition.context: 24 hours after administration
measurement.type: DC50

compound: CC(C)N(CC1CCN(c2ccc(NC(=O)N3C[C@H](C)N(c4ccc(C#N)c5ncccc45)C[C@H]3C)cn2)CC1)C1CC(Oc2ccc3c(c2)C(=O)N(C2CCC(=O)NC2=O)C3=O)C1 (stereo partly shown) [Compound 2-13]
assay.target: androgen receptor (AR) (Homo sapiens, UniProt P10275, T878A)
DC50: > 100 nM

compound: COc1cc(N2C[C@@H](C)N(C(=O)Nc3cc(F)c(N4CCC(CN5CCN(c6ccc7c(c6)C(=O)N(C6CCC(=O)NC6=O)C7=O)CC5)CC4)cc3F)C[C@@H]2C)ccc1C#N (stereo partly shown) [Compound 1-29]
assay.target: androgen receptor (AR) (Homo sapiens, UniProt P10275, T878A)
DC50: ≤ 10 nM

compound: C[C@@H]1CN(c2ccc(C#N)c3ncccc23)[C@@H](C)CN1C(=O)Nc1ccc(N2CCC(CN3CCN(c4ccc5c(c4)CN([C@H]4CCC(=O)NC4=O)C5=O)CC3)CC2)c(F)c1 [Compound 2-21]
assay.target: androgen receptor (AR) (Homo sapiens, UniProt P10275, T878A)
DC50: > 100 nM

compound: C[C@@H]1CN(c2ccc(C#N)c(Cl)c2)[C@@H](C)CN1C(=O)Nc1cnc(N2CCC(CN3CCN(c4cc5c(cc4F)C(=O)N(C4CCC(=O)NC4=O)C5=O)CC3)CC2)nc1 (stereo partly shown) [Compound 1-41]
assay.target: androgen receptor (AR) (Homo sapiens, UniProt P10275, T878A)
DC50: ≤ 10 nM

compound: C[C@@H]1CN(c2ccc(C#N)c3ncccc23)[C@@H](C)CN1C(=O)Nc1cnc(N2CCC(CN3CCN(c4ccc5c(c4)CN([C@H]4CCC(=O)NC4=O)C5=O)CC3)CC2)nc1 [Compound 2-10]
assay.target: androgen receptor (AR) (Homo sapiens, UniProt P10275, T878A)
DC50: > 100 nM

Entry under review: C[C@@H]1CN(c2ccc(C#N)c(C(F)(F)F)c2)[C@@H](C)CN1C(=O)Nc1ccc(N2CCC(CN3CCN(c4ccc5c(c4)CN([C@H]4CCC(=O)NC4=O)C5=O)CC3)CC2)c(F)c1 [Compound 1-50] . Reported DC50?
≤ 10 nM

Next compound: C[C@@H]1CN(c2ccc(C#N)c(Cl)c2)[C@@H](C)CN1C(=O)Nc1ccc(N2CCC(CN3CCN(c4cc5c(cc4F)C(=O)N([C@H]4CCC(=O)NC4=O)C5=O)CC3)CC2)nc1 [Compound 1-54]
≤ 10 nM

Next compound: C[C@@H]1CN(c2ccc(C#N)c(Cl)c2)[C@@H](C)CN1C(=O)Nc1cnc(N2CCC(CN3CCN(c4ccc5c(c4)C(=O)N(C4CCC(=O)NC4=O)C5=O)CC3)CC2)nc1 (stereo partly shown) [Compound 1-21]
≤ 10 nM

Next compound: CC(C)N(CC1CCN(c2ncc(NC(=O)N3C[C@H](C)N(c4ccc(C#N)c5ncccc45)C[C@H]3C)cn2)CC1)C1CC(Oc2ccc3c(c2)C(=O)N(C2CCC(=O)NC2=O)C3=O)C1 (stereo partly shown) [Compound 2-14]
≤ 10 nM

Next compound: COc1cc(N2C[C@@H](C)N(C(=O)Nc3cnc(N4CCC(CN5CCN(c6ccc7c(c6)CN([C@H]6CCC(=O)NC6=O)C7=O)CC5)CC4)nc3)C[C@@H]2C)ccc1C#N [Compound 1-52]
≤ 10 nM

Next compound: C[C@@H]1CN(c2ccc(C#N)c(C(F)(F)F)c2)[C@@H](C)CN1C(=O)Nc1cnc(N2CCC(CN3CCN(c4ccc5c(c4)CN([C@H]4CCC(=O)NC4=O)C5=O)CC3)CC2)nc1 [Compound 1-49]
≤ 10 nM

---

- assay.target: androgen receptor (AR) (Homo sapiens, UniProt P10275, T878A)
- Construct: endogenous in cells; host or cells: LNCAP
- Sequence (P10275 1-920 T878A): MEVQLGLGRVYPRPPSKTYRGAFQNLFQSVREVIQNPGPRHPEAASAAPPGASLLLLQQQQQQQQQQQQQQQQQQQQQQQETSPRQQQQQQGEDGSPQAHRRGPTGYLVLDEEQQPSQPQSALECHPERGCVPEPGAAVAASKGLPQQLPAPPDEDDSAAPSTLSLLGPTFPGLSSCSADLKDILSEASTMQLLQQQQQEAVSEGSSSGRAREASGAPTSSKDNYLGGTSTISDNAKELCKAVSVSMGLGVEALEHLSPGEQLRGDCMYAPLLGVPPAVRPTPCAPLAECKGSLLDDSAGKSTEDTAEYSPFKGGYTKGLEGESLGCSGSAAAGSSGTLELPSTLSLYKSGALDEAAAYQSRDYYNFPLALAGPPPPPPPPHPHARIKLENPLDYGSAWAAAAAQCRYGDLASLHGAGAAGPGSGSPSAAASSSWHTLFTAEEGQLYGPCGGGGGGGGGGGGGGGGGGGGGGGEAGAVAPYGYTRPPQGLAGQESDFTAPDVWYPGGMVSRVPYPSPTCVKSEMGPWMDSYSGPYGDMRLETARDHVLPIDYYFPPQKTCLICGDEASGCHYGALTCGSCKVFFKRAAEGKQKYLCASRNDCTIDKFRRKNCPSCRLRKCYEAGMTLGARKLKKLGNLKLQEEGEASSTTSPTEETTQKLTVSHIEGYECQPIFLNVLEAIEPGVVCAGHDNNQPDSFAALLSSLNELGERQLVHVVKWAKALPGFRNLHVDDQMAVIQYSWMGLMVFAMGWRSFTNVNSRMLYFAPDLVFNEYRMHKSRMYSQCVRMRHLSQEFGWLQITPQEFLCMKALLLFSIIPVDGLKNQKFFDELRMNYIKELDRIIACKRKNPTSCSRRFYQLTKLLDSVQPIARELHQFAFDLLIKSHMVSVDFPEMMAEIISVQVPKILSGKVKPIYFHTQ
- protocol.description: AR degradation in LNCAP cells (Western blot)
- Assay type: cell-based
- condition.context: 24 hours after administration
measurement.type: DC50

Some entries whose results are on file:
compound: COc1cc(N2C[C@@H](C)N(C(=O)Nc3ccc(N4CCC(CN5CCN(c6ccc7c(c6)C(=O)N(C6CCC(=O)NC6=O)C7=O)CC5)CC4)cc3F)C[C@@H]2C)ccc1C#N (some centres unmarked)
DC50: ≤ 10 nM
//
compound: C[C@@H]1CN(C(=O)Nc2cnc(N3CCC(CN4CCN(c5ccc6c(c5)C(=O)N(C5CCC(=O)NC5=O)C6=O)CC4)CC3)nc2)[C@@H](C)CN1c1ccc(C#N)c(Cl)c1 (some centres unmarked)
DC50: > 100 nM
//
compound: COc1cc(N2C[C@@H](C)N(C(=O)Nc3ccc(N4CCC(CN5CCN(c6cc7c(cc6F)C(=O)N(C6CCC(=O)NC6=O)C7=O)CC5)CC4)nc3)C[C@@H]2C)ccc1C#N (some centres unmarked)
DC50: ≤ 10 nM
//
compound: C[C@@H]1CN(c2ccc(C#N)c(Cl)c2)[C@@H](C)CN1C(=O)Nc1ccc(N2CCC(CN3CCN(c4ccc5c(c4)CN([C@H]4CCC(=O)NC4=O)C5=O)CC3)CC2)nc1
DC50: ≤ 10 nM
//
compound: C[C@@H]1CN(c2ccc(C#N)c3ncccc23)[C@@H](C)CN1C(=O)Nc1ccc(N2CCC(CN3CCN(c4cc5c(cc4F)C(=O)N(C4CCC(=O)NC4=O)C5=O)CC3)CC2)nc1 (some centres unmarked)
DC50: > 100 nM

Entry under review: C[C@@H]1CN(c2ccc(C#N)c(Cl)c2)[C@@H](C)CN1C(=O)Nc1ccc(N2CCC(CN3CCN(c4ccc5c(c4)C(=O)N(C4CCC(=O)NC4=O)C5=O)CC3)CC2)nc1 (some centres unmarked) [Compound 1-14] . Reported DC50?
≤ 10 nM

Values compiled from patent US11420956B2.
